testTarget: human M1 (Homo sapiens, UniProt P11229)
Construct: expressed in transfected cells; host or cells: CHO cells
Sequence (P11229 whole entry): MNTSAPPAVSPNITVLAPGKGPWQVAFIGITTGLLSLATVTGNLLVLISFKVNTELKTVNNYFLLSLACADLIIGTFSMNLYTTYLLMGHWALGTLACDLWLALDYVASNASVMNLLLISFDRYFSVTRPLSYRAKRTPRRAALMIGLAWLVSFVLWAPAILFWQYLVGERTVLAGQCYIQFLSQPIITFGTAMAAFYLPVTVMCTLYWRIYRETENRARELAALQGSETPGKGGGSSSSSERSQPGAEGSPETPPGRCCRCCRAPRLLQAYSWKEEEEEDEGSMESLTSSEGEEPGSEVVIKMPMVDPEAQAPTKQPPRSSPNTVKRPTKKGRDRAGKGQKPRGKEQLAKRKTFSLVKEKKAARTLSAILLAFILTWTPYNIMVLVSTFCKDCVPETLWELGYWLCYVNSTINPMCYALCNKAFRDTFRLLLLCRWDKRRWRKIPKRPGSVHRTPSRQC
protocol: M1 PAM assay (FLIPR intracellular calcium), human M1
Format: cell-based
experimentalParameters: CHO human M1 cells, FLIPR Ca2+, with EC20 of acetylcholine; first value of the cell; read-out: hM1 EC50
assayEndpoint: pEC50
One number for each entry, as −log10 of the molar value.

Give pEC50 for each of the items listed below.
1. Cn1cc(-c2ccc(Cn3cc(C(=O)NC4CCCOC4)c4c(F)cccc43)cc2)cn1 (stereo not drawn)
2. Cc1ccc(F)c2c(C(=O)NC3CCOCC3)cn(Cc3ccc(-c4cnn(C)c4)cc3)c12
3. Cn1cc(-c2ccc(Cn3cc(C(=O)N[C@H]4CCCC[C@@H]4O)c4c(F)cccc43)cn2)cn1
4. Cn1cc(-c2ccc(Cn3cc(C(=O)N[C@H]4CCCC[C@@H]4O)c4c(F)c(F)c(F)c(F)c43)cn2)cn1
5. Cn1cc(-c2ccc(Cn3cc(C(=O)NC4CCCCC4)c4c(F)cccc43)c(F)c2)cn1
6. Cn1cc(-c2ccc(Cn3cc(C(=O)N[C@@H]4CCCC(F)(F)[C@H]4O)c4c(F)cccc43)cc2)cn1
7. CNC(=O)c1ccc(Cn2cc(C(=O)NC3CCOCC3)c3c(F)cccc32)c(F)c1
8. Cn1cc(-c2ccc(Cn3cc(C(=O)N[C@H]4CCCC(F)(F)[C@@H]4O)c4c(F)cccc43)c(F)c2)cn1

Resp:
6.89
7.35
7.88
7.25
6.69
8.40
7.32
8.15
